Biological target: TNKS1 (Homo sapiens)
Sequence (O95271 1-1327): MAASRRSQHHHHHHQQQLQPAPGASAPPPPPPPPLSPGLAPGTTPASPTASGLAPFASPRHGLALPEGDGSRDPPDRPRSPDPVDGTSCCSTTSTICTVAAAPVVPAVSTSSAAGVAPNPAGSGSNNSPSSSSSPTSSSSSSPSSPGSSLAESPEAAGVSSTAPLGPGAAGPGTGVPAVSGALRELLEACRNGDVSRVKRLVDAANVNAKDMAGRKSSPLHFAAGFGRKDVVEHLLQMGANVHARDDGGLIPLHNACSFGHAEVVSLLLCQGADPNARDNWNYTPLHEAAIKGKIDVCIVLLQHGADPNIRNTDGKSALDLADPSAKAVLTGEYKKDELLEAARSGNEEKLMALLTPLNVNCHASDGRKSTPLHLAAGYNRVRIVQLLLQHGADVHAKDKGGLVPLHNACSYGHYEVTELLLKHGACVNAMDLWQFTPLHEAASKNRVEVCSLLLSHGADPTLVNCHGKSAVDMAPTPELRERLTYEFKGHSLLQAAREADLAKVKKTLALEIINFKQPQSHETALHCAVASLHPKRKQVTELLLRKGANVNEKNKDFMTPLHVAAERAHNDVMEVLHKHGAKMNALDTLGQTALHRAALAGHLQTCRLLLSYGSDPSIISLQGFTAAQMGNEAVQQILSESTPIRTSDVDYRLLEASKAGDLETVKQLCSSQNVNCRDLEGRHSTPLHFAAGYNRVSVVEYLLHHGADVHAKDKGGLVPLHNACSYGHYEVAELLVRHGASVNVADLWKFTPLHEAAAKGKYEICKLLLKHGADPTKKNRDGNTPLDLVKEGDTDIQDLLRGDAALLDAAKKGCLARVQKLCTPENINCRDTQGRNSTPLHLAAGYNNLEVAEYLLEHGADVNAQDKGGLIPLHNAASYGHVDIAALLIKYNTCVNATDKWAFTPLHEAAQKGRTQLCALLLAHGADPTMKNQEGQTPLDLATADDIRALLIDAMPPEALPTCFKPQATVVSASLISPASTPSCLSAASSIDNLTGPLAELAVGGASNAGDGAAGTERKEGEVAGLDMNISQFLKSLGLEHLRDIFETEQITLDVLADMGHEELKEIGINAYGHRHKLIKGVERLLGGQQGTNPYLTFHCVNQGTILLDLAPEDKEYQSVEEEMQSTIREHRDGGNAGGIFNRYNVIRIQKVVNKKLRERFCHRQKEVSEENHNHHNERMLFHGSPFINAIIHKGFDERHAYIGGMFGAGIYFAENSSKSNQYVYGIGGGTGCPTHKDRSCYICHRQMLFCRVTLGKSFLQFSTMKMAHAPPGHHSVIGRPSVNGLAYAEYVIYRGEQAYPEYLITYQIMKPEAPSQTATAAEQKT
Assay: TNKS1 Assay 1 (TNKS1 Histone Ribosylation Assay Kit, biotin-labeled NAD+)
Type: biochemical
Conditions: chemiluminescent readout, 384 well, Table 1
Each entry below carries its reported IC50.

line_notation	IC50
CNC(=O)c1[nH]cnc1C(=O)Nc1ccc(NC(=O)c2cc(Cl)sc2Cl)cc1	> 100 µM
CNC(=O)c1nc[nH]c1C(=O)Nc1ccc(NC(=O)c2ccc(N3CCCC3)cc2F)cc1	> 100 µM
CNC(=O)c1nc[nH]c1C(=O)Nc1ccc(NC(=O)c2c(-c3ccccc3)nn(C)c2Cl)cc1	> 100 µM
